Experiment: in vitro
Details: human, hepg2 cells
Below, each entry is listed alongside its reported CC50 at 72 h.

# count of solved cases: 5
- Chemical string: "Cc1nc(Cl)c2ccn([C@@H]3O[C@](F)(CO)[C@@H](O)[C@H]3O)c2n1"
  CC50 at 72 h: "> 99 µM"
- Chemical string: "C#C[C@]1(O)[C@H](n2ccc3c(NCCC)ncnc32)O[C@](F)(CO)[C@H]1O"
  CC50 at 72 h: "10 to 99 µM"
- Chemical string: "NC(=O)c1cn([C@@H]2O[C@](F)(CO)[C@@H](O)[C@H]2O)c2ncnc(N)c12"
  CC50 at 72 h: "< 1 µM"
- Chemical string: "Nc1nc2c(ncn2[C@@H]2O[C@](F)(CO)[C@@H](O)C2(F)F)c(=O)[nH]1"
  CC50 at 72 h: "> 99 µM"
- Chemical string: "Nc1ncnc2c1ccn2[C@@H]1O[C@](F)(CO)[C@@H](O)[C@H]1O"
  CC50 at 72 h: "1 to 10 µM"

Prompt line: GET /values?readout=CC50 at 72 h&item= Nc1ncnc2c1ccn2[C@@H]1C[C@](F)(CO)[C@@H](O)[C@H]1O
Response line: 10 to 99 µM

Prompt line: GET /values?readout=CC50 at 72 h&item= CCOc1nc(N)nc2c1ncn2[C@@H]1O[C@](F)(CO)[C@@H](O)[C@]1(F)Cl
Response line: > 99 µM

Prompt line: GET /values?readout=CC50 at 72 h&item= OC[C@@]1(F)O[C@@H](n2cc(Cl)c3cncnc32)[C@H](O)[C@@H]1O
Response line: < 1 µM
